Test system: HeLa cells
Experiment: Compound screen by flow cytometry: HeLa cell count as surrogate readout of cell viability (z-scoreHeLa); also: test concentration or dose not given here
Format: cell-based, human
Details: compound screen, HeLa cell count, mean of 3 replicates
Exercise: for every item that follows, state its recorded z-scoreHeLa mean.
Numbers only.

Solved entries:
Enter measured z-scoreHeLa mean, system HeLa cells, for the compound shown: Cc1ccc(C(=O)Nc2ccc(Nc3ccnc4cc(-c5ccccn5)ccc34)cc2O)cc1 [GW440146A] 0.38

Fill in: z-scoreHeLa mean on HeLa cells, entry O=S(=O)(c1cccc(F)c1)c1ccc(Nc2ncnc3cc(Br)sc23)cc1Cl [GSK306886A] -1.56

Report z-scoreHeLa mean on HeLa cells for this entry: COc1cc(C=NNc2ncnc3c2cnn3-c2ccccc2)ccc1O [GW513184X] 0.11

Note: attention shifts to another entry.
Return reported z-scoreHeLa mean for target or system HeLa cells, item COc1ccc(Nc2nccc(-c3ccc(NC(=O)c4cc5cc(F)ccc5[nH]4)cc3)n2)cc1 [GSK1229496A] . -0.24

Data provenance: paper PMC10999543
